target: BRD4 BD1 (Homo sapiens, UniProt O60885, Y390A); construct: BRD4 (1-477) (Y97A) and (Y390A); made in house; host or cells: E. coli (pET15b vector); assay: TR-FRET binding assay, BRD4 BD1 (mutant protein); conditions: BRD4 (1-477) mutant, 10 nM protein, read-out: pIC50 in the BRD4 BD1 assay (converted)
Counter-ions that a name gives are not always drawn.
REPORTED_PROPERTY: IC50

## Input Tell me the measured IC50 of CN1CCN(Cc2cc3c(=O)n(C)cc(-c4ccncc4OCC4CC4)c3o2)CC1=O [Example 76, hydrochloride] , please.
## Output ≤ 100 nM

## Input Endpoint output: IC50 of C[C@@H]1CN(S(C)(=O)=O)CCN1Cc1cc2c(=O)n(C)cc(-c3ccncc3O)c2o1 . Value?
## Output ≤ 100 nM

## Input I am curious: what IC50 value has been reported for CC(=O)Nc1cccc(-c2cn(C)c(=O)c3cc(CN4CCN(S(C)(=O)=O)C[C@H]4C)oc23)n1 ?
## Output ≤ 100 nM

## Input Need IC50 of CC(=O)Nc1cc(-c2cn(C)c(=O)c3cc(CN4CCN(S(C)(=O)=O)CC4)oc23)ccn1 , thanks.
## Output ≤ 100 nM

## Input Given the entry C[C@@H]1CN(S(C)(=O)=O)CCN1Cc1cc2c(=O)n(C)cc(-c3ccnc(OCC4CC4)c3)c2o1 , report its measured IC50.
## Output ≤ 100 nM

## Input Query (compound): CC(Oc1cncc(-c2cn(C)c(=O)c3cc(CN4CCN(S(C)(=O)=O)CC4)oc23)c1)c1ccccc1 (stereo not shown) ; field requested: IC50
## Output ≤ 100 nM

## Input Quick one: IC50 of C[C@@H]1CN(S(C)(=O)=O)CCN1Cc1cc2c(=O)n(C)cc(-c3ncccc3OCC3CC3)c2o1 ?
## Output ≤ 100 nM

Taken from patent US9670221B2.
